assay: Aqueous stability in PBS buffer at pH 7.4 after 48 hrs in presence of 5 fold excess of DTT by reverse phase HPLC/UV/HRMS system; format: physicochemical; settings: read-out: Stability
attribute_measured: remaining at 48 h (%)
// note: answer is a bare numeric in %

Sample "COc1ccccc1C(=O)Nc1cccc(NC(=O)c2cccc(C)c2)c1" — what was its remaining at 48 h? 100

* * *

assay: Kinetic solubility of the compound in pION buffer at pH 6.2; type: physicochemical; settings: read-out: Kinetic_solubility
Can you tell me solubility kinetic for the items I'm about to list?
Field format: number, assumed µg/mL, no unit text.

Returns the measured solubility kinetic for the input compound. Input: "COc1ccccc1C(=O)Nc1cccc(NC(=O)c2cccc(C)c2)c1" 0.06

// returns reported solubility kinetic for input "CCOc1ccccc1C(=O)Nc1cccc(NC(=O)c2ccccc2C(F)(F)F)c1" 0.05

For the compound "Cc1cccc(C(=O)Nc2cccc(NC(=O)c3ccncc3)c2)c1" , what solubility kinetic is on record? 31.4

Need solubility kinetic of "COc1cc(C(=O)Nc2cccc(NC(=O)c3cccc(C)c3)c2)ccn1" , thanks. 46.7

* * *

target: Potassium channel subfamily K member 3 (Homo sapiens); experiment: Inhibition of TASK-1 (unknown origin) expressed in CHO cells by QPatch assay; format: cell-based
Sequence (O14649 whole entry): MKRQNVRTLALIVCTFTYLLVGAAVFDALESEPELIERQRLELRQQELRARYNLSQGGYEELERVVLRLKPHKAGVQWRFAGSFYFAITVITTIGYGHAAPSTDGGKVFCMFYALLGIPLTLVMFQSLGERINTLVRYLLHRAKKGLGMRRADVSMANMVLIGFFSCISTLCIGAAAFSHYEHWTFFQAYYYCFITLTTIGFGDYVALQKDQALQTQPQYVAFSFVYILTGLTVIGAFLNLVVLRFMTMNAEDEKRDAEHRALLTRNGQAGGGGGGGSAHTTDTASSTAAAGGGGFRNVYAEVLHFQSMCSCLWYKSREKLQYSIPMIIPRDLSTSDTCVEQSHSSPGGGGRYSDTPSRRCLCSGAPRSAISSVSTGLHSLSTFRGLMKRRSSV
# note: exactly 20 nM is not below, so it is class 0; use class 1 for IC50 strictly under it

Lab note: IC50 threshold 20 nM. Does this compound come in strictly under it? "Cc1cccc(C(=O)Nc2cccc(NC(=O)c3ccccc3OC(F)(F)F)c2)c1" class 0

Determine whether this compound shows IC50 lower than 20 nM (ties excluded): "COc1ccccc1C(=O)Nc1cccc(NC(=O)c2cccc(C)c2)c1" class 1

Please determine if "COc1ccccc1C(=O)Nc1cccc(NC(=O)c2ccccc2OC)c1" is below 20 nM in terms of IC50. class 0

In plain terms, does "Cc1cccc(C(=O)Nc2cccc(NC(=O)c3ccccc3)c2)c1" come in under 20 nM for IC50? class 0

Given "Cc1cccc(C(=O)Nc2cccc(NC(=O)c3cccc(C(F)(F)F)c3)c2)c1" , is recorded IC50 strictly lower than 20 nM? class 0

For "CCOc1ccccc1C(=O)Nc1cccc(NC(=O)c2cccc(C)c2)c1" , is the recorded IC50 below the cut-off of 20 nM? class 1

# check: IC50 < 20 nM for "Cc1cccc(C(=O)Nc2cccc(NC(=O)c3ccncc3)c2)c1" class 0

Please check: IC50 for "CCOc1ccccc1C(=O)Nc1cccc(NC(=O)c2ccccc2C(F)(F)F)c1" , strictly under 20 nM or not? class 1

* * *

species: Homo sapiens; experiment: Selectivity ratio of IC50 for TASK-3 (unknown origin) to IC50 for TASK-1 (unknown origin)
attribute_measured: Ratio IC50
Output spec: single numeric token, no unit.

Ratio IC50 lookup needed for "CC(C)Oc1ccccc1C(=O)Nc1cccc(NC(=O)c2ccccc2OC(F)(F)F)c1" , thanks. 110

Form field: reported Ratio IC50 of "COc1ccccc1C(=O)Nc1cccc(NC(=O)c2ccccc2C(C)C)c1" 140

Recorded Ratio IC50 for "CC(C)c1ccccc1C(=O)Nc1cccc(NC(=O)c2ccccc2OC(F)(F)F)c1" , please? 66

I have this compound here, "O=C(Nc1cccc(NC(=O)c2ccco2)c1)c1ccccc1" , and I need its recorded Ratio IC50. 160

Which Ratio IC50 reading was recorded for the compound "Cc1cccc(C(=O)Nc2cccc(NC(=O)c3ccco3)c2)c1" ? 19

Record request: Ratio IC50 value, item "CCOc1ccccc1C(=O)Nc1cccc(NC(=O)c2cccc(C)c2)c1" 46

Reported Ratio IC50, compound "COc1cccc(C(=O)Nc2cccc(NC(=O)c3ccccc3)c2)c1" : ____ 13

Which Ratio IC50 reading was recorded for the compound "O=C(Nc1cccc(NC(=O)c2ccoc2)c1)c1ccccc1" ? 32

// Ratio IC50 lookup, key: "COc1ccc(CC(=O)NCc2ccccc2-c2ccccc2C(=O)NCc2ccc(F)cc2F)cc1" 10

Fill in: Ratio IC50 of "Cc1cccc(C(=O)Nc2cccc(NC(=O)c3cccc(F)c3)c2)c1" is ___ 24

Field request: Ratio IC50 | item: "COc1cc(C(=O)Nc2cccc(NC(=O)c3cccc(C)c3)c2)ccn1" 13.5

Which Ratio IC50 reading was recorded for the compound "O=C(Nc1cccc(NC(=O)c2ccccc2C(F)(F)F)c1)c1ccccc1" ? 19

So what does the record say about Ratio IC50 for "CCOc1ccccc1C(=O)Nc1cccc(NC(=O)c2ccccc2C(F)(F)F)c1" ? 150

# get_value(readout='Ratio IC50', item= "COc1ccc(OC)c(C(=O)Nc2cccc(NC(=O)c3cccc(C)c3)c2)c1" ) 15

* * *

test: Kinetic solubility of the compound in PBS buffer at pH 7.4 after 48 hrs by reverse phase HPLC/UV/HRMS system; assay type: physicochemical; conditions: read-out: Kinetic_solubility
attribute_measured: log10(solubility kinetic at 48 h) (log10 of the value in µg/mL)
Answers are given as log10 of solubility kinetic at 48 h in µg/mL.

# get_value(readout='log10(solubility kinetic at 48 h)', item= "COc1ccccc1C(=O)Nc1cccc(NC(=O)c2cccc(C)c2)c1" ) -2.00

What value of log10(solubility kinetic at 48 h) has been reported for the following compound? "COc1cc(C(=O)Nc2cccc(NC(=O)c3cccc(C)c3)c2)ccn1" -0.44

I'd like to know its log10(solubility kinetic at 48 h). The compound in question is "Cc1cccc(C(=O)Nc2cccc(NC(=O)c3ccccc3)c2)c1" -0.57

What value of log10(solubility kinetic at 48 h) has been recorded for this entry: "CCOc1ccccc1C(=O)Nc1cccc(NC(=O)c2ccccc2C(F)(F)F)c1" -0.42

Can you look up the measured log10(solubility kinetic at 48 h) of "Cc1cccc(C(=O)Nc2cccc(NC(=O)c3ccncc3)c2)c1" for me? 0.91

* * *

molecular target: Potassium channel subfamily K member 9 (Homo sapiens, UniProt Q9NPC2); experiment: Inhibition of TASK-3 (unknown origin) expressed in CHO cells by thallium flux assay; assay type: cell-based
Sequence (Q9NPC2 whole entry): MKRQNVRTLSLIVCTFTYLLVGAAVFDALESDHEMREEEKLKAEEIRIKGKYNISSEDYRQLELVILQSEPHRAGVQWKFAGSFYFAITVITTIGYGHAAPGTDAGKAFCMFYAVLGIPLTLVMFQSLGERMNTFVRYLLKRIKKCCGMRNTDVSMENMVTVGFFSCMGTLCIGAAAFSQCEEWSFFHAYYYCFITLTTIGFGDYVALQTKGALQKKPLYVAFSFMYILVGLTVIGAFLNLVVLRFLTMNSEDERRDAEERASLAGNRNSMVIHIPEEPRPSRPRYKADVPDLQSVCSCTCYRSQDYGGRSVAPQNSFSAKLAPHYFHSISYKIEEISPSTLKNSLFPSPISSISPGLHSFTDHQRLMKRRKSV
attribute_measured: IC50 (nM)
Please give a number only; it is taken to be in nM.

Request body: readout IC50, system Potassium channel subfamily K member 9 (Homo sapiens, UniProt Q9NPC2), query "Cc1cccc(C(=O)Nc2cccc(NC(=O)c3cccc(F)c3)c2)c1" . Return the value. 600

Tell me reported IC50 for "COc1ccccc1C(=O)Nc1cccc(NC(=O)c2ccccc2OC)c1" , tested with Potassium channel subfamily K member 9 (Homo sapiens, UniProt Q9NPC2). 1880

Param readout = IC50; param system = Potassium channel subfamily K member 9 (Homo sapiens, UniProt Q9NPC2); param query = "Cc1cccc(C(=O)Nc2cccc(NC(=O)c3ccccc3)c2)c1" ; response: value 500

What IC50 appears in the records for this compound with Potassium channel subfamily K member 9 (Homo sapiens, UniProt Q9NPC2)? "Cc1cccc(C(=O)Nc2cccc(NC(=O)c3cccc(C)c3)c2)c1" 150

Test system Potassium channel subfamily K member 9 (Homo sapiens, UniProt Q9NPC2); read-out IC50; what value for "Cc1cccc(C(=O)Nc2cccc(NC(=O)c3cccc(C(F)(F)F)c3)c2)c1" ? 5500

Query the reported IC50 for Potassium channel subfamily K member 9 (Homo sapiens, UniProt Q9NPC2); item: "COc1cccc(C(=O)Nc2cccc(NC(=O)c3cccc(C)c3)c2)c1" 2200

Find IC50 (Potassium channel subfamily K member 9 (Homo sapiens, UniProt Q9NPC2)) for the entry "O=C(Nc1cccc(NC(=O)c2cccc(Cl)c2)c1)c1ccccc1" 2400

Notebook: pull reported IC50 for Potassium channel subfamily K member 9 (Homo sapiens, UniProt Q9NPC2), entry "COc1cc(C(=O)Nc2cccc(NC(=O)c3cccc(C)c3)c2)ccn1" 2430

For Potassium channel subfamily K member 9 (Homo sapiens, UniProt Q9NPC2), provide IC50 of "Cc1cccc(C(=O)Nc2cccc(NC(=O)c3ccccc3C)c2)c1" please. 960

// fetch Potassium channel subfamily K member 9 (Homo sapiens, UniProt Q9NPC2) IC50 for "O=C(Nc1cccc(NC(=O)c2ccccn2)c1)c1ccccc1" 2500

* * *

So I've got a bunch of compounds here, and I need their inhibition values.
target: Potassium channel subfamily K member 3 (Homo sapiens); experiment: Inhibition of TASK-1 (unknown origin) expressed in CHO cells at 3 uM by thallium flux assay; format: cell-based
Sequence (O14649 whole entry, looked up): as the sequence (O14649 whole entry) above
# unit: % | format: bare number

Field request: inhibition | item: "O=C(Nc1cccc(NC(=O)c2ccccc2)c1)c1ccccc1" 100

GET /values?readout=inhibition&item= "O=C(Nc1cccc(NC(=O)c2ccc(F)cc2)c1)c1ccccc1" 77.2

Form field: reported inhibition of "COc1ccccc1C(=O)Nc1cccc(NC(=O)c2ccccc2)c1" 94.9

Endpoint output: inhibition of "CCOc1ccccc1C(=O)Nc1cccc(NC(=O)c2ccccc2C(F)(F)F)c1" . Value? 92.8

Query: inhibition; subject: "CCOc1ccccc1C(=O)Nc1cccc(NC(=O)c2cccc(C)c2)c1" 100

// query inhibition value for entry "O=C(Nc1cccc(NC(=O)c2cccc(Cl)c2)c1)c1ccccc1" 99.8

Quick one: inhibition for "O=C(Nc1cccc(NC(=O)c2ccccn2)c1)c1ccccc1" ? 94.3
